Assayed System: T1, DegS Q191A/H198P (E. coli, UniProt P0AEE3 27-355, Q191A | H198P)
T1 sequence (looked up): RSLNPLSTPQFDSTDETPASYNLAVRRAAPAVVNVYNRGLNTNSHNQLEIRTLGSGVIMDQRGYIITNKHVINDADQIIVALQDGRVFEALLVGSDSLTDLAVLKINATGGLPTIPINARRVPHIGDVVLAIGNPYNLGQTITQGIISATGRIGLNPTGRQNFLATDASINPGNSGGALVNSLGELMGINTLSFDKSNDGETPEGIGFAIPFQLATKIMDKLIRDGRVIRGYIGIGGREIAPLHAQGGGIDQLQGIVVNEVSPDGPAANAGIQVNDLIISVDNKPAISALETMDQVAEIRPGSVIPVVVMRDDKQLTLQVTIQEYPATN
Experiment: fluorescence polarisation
Where no end group is shown, it is not given here. fluorescein = fluorescein, a fluorescent label on the peptide N-terminus
Measured Property: Kd (nM)

> print(dat)
                                     binder  readout.unit  measured.value
1  fluorescein-DNRDGNVYYF [fluorescent OMP peptide fluorescein-DNRDGNVYYF]            nM            1400
